# Tested on: Calf thymus DNA
# ASSAY_INFO: Binding affinity to calf thymus DNA assessed as change in gibbs free energy in presence of ethidium bromide by competitive binding based fluorescence spectroscopic analysis
# Type: nucleic-acid assay
# RUN_PARAMETERS: Bos taurus
Measured deltaG of individual entries
Give just the number in kcal/mol; leave the unit off.

Take a look at these entries with their results.
molecule=COc1ccc2c(c1OC)C(=O)c1c3c(cc(O)c1C2=O)[C@@]12O[C@@]1([C@@H](C)O)[C@H](C#C/C=C\C#C[C@H]2O)N3 reported_result=-7.98
molecule=COC1=C(C(=O)O)[C@H](C)[C@@]23O[C@]24c2cc(O)c5c(c2N[C@H]3C#C/C=C\C#CC14)C(=O)c1c(O)ccc(O)c1C5=O reported_result=2.62

# input molecule: COc1cc(Br)c2c(c1O)C(=O)c1c3c(cc(O)c1C2=O)[C@@]12O[C@@]1([C@@H](C)O)[C@H](C#C/C=C\C#C[C@H]2O)N3 ; wanted: its deltaG
-8.13

# input molecule: COc1ccc2c(c1O)C(=O)c1c3c(cc(O)c1C2=O)[C@@]12O[C@@]1([C@](C)(O)[C@H](O)C(=O)O)[C@H](C#C/C=C\C#C[C@H]2O)N3 ; wanted: its deltaG
-8.48

# input molecule: C[C@@H](O)C12O[C@]13c1cc(O)c4c(c1N[C@H]2C#C/C=C\C#C[C@H]3O)C(=O)c1c(O)cccc1C4=O (stereo partly specified) ; wanted: its deltaG
-8.31

# input molecule: COC(=O)[C@@H](O)[C@@](C)(O)[C@@]12O[C@]13c1cc(O)c4c(c1N[C@H]2C#C/C=C\C#C[C@H]3O)C(=O)c1cc(OC)ccc1C4=O ; wanted: its deltaG
-7.99
